Cortex WT (TB)/cortex WT (block Co. No. 1): recorded values
- Target Desc: mGluR2 (Mus musculus, UniProt Q14BI2)
- Construct: horizontal sections of mGluR2 KO and WT mouse brain and of normal female Wistar rat brain; from tissue; host or cells: mouse brain sections (WT and mGluR2 KO), 20 µm
- Sequence (Q14BI2 19-872): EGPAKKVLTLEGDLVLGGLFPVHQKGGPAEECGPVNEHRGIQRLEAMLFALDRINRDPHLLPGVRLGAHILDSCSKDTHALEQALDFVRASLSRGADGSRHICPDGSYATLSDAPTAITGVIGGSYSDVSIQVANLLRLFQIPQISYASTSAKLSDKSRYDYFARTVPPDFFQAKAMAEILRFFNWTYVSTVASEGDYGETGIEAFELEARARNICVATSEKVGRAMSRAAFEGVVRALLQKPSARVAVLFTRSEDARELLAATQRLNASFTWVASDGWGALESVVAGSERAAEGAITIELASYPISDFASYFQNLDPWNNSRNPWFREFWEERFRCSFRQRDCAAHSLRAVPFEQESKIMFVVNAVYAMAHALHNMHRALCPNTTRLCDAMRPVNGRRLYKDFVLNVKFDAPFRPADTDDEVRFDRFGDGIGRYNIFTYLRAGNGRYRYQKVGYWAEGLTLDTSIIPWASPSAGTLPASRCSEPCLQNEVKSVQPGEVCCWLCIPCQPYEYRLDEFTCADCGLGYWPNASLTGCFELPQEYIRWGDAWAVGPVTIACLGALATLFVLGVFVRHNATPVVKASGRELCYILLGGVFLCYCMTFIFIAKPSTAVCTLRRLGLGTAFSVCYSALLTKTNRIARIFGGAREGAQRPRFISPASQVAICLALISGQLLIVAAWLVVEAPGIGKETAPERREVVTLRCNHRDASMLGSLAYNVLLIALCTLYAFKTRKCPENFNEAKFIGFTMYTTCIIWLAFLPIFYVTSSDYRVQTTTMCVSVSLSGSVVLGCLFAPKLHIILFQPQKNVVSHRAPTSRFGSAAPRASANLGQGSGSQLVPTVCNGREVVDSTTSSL
- Experiment: In vitro autoradiography binding on mGluR2 KO and WT mouse brain sections
- Run Parameters: WT mouse cortex, block with 10 μM Co. No. 1

Asked: Consider the compound C[C@H]1CN(c2ccc(C(F)(F)F)cc2)C(=O)c2c(-c3ccnc([11CH3])c3)cnn21 [[^11C]-1] . State its measured Cortex WT (TB)/cortex WT (block Co. No. 1).
Given back: ~21.5

Asked: Consider the compound COc1nc(N2C[C@H](C)n3ncc(-c4ccnc(N[11CH3])c4)c3C2=O)ccc1C(F)(F)F [[^11C]-5] . State its measured Cortex WT (TB)/cortex WT (block Co. No. 1).
Given back: ~2.4

Asked: Consider the compound C[C@H]1CN(c2ccc(S(F)(F)(F)(F)F)cc2)C(=O)c2c(-c3ccnc(N[11CH3])c3)cnn21 [[^11C]-4] . State its measured Cortex WT (TB)/cortex WT (block Co. No. 1).
Given back: ~3.8

Asked: Consider the compound C[C@H]1CN(c2ccc(C(F)(F)F)cc2)C(=O)c2c(-c3ccnc(N[11CH3])c3)cnn21 [[^11C]-2] . State its measured Cortex WT (TB)/cortex WT (block Co. No. 1).
Given back: ~6.7

====

- Target Desc: mGluR2 (Mus musculus, UniProt Q14BI2)
- Construct: horizontal sections of mGluR2 KO and WT mouse brain and of normal female Wistar rat brain; from tissue; host or cells: mouse brain sections (WT and mGluR2 KO), 20 µm
- Experiment: In vitro autoradiography binding on mGluR2 KO and WT mouse brain sections
- Run Parameters: total binding ratio, WT versus mGluR2 KO mouse brain sections, cortex
Cortex WT (TB)/Cortex KO (TB): recorded values

Completed entries (count: 3):
C[C@H]1CN(c2ccc(C(F)(F)F)cc2)C(=O)c2c(-c3ccnc(N[11CH3])c3)cnn21 [[^11C]-2]: ~8.1
C[C@H]1CN(c2ccc(C(F)(F)F)cc2)C(=O)c2c(-c3ccnc([11CH3])c3)cnn21 [[^11C]-1]: ~7.1
C[C@H]1CN(c2ccc(S(F)(F)(F)(F)F)cc2)C(=O)c2c(-c3ccnc(N[11CH3])c3)cnn21 [[^11C]-4]: ~2.6

Consider now this further molecule.
Asked: Consider the molecule COc1nc(N2C[C@H](C)n3ncc(-c4ccnc(N[11CH3])c4)c3C2=O)ccc1C(F)(F)F [[^11C]-5] . State its measured Cortex WT (TB)/Cortex KO (TB).
Given back: ~2.6

====

- Target Desc: mGlu3 (Homo sapiens)
- Sequence (Q14832 23-879): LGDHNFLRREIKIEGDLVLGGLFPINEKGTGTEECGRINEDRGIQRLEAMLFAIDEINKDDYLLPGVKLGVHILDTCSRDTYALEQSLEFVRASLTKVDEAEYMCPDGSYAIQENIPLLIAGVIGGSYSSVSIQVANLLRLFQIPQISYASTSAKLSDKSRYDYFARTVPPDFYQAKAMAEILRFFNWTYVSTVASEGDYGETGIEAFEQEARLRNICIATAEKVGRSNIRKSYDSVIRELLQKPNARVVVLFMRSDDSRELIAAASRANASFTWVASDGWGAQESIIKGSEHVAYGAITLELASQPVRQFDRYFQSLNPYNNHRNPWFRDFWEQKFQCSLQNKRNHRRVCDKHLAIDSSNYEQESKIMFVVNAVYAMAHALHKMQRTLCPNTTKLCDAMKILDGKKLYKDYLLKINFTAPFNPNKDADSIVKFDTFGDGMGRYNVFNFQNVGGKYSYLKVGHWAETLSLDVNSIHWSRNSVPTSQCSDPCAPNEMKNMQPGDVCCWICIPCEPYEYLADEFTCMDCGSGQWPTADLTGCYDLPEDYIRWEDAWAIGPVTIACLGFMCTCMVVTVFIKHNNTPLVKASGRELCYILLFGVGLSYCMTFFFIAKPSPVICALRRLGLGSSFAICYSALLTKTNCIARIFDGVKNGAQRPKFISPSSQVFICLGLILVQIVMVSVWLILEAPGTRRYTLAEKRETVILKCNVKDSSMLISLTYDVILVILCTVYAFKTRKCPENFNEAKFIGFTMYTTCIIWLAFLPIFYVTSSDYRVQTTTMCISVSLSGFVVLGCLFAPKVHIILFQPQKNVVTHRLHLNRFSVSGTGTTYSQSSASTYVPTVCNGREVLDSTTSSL
- Experiment: Selectivity for mGluR2 versus mGluR3
- Assay type: biochemical
Readout Label: Selectivity over mGlu3
Would you mind answering with just the numeric figure?

CNc1cc(-c2cnn3c2C(=O)N(c2ccc(C(F)(F)F)cc2)C[C@@H]3C)ccn1 [Co. No. 2]: 44.7
Cc1cc(-c2cnn3c2C(=O)N(c2ccc(C(F)(F)F)cc2)C[C@@H]3C)ccn1 [Co. No. 1]: 25.7
CNc1cc(-c2cnn3c2C(=O)N(c2ccc(S(F)(F)(F)(F)F)cc2)C[C@@H]3C)ccn1 [Co. No. 4]: 77.6
CNc1cc(-c2cnn3c2C(=O)N(c2ccc(C(F)(F)F)c(OC)n2)C[C@@H]3C)ccn1 [Co. No. 5]: 234.4

Consider now this further molecule.
Asked: Recall the reported Selectivity over mGlu3 of C[C@H]1CN(c2ccc(Cl)c(Cl)c2)C(=O)c2c(-c3ccnc(F)c3)cnn21 [Co. No. 3] on mGlu3 (Homo sapiens) and write it down.
Given back: 16.2

====

- Target Desc: mGluR2 (Mus musculus, UniProt Q14BI2)
- Construct: horizontal sections of mGluR2 KO and WT mouse brain and of normal female Wistar rat brain; from tissue; host or cells: mouse brain sections (WT and mGluR2 KO), 20 µm
- Experiment: In vitro autoradiography binding on mGluR2 KO and WT mouse brain sections
- Run Parameters: in words
- Experimental: In vitro autoradiography studies were performed on horizontal sections of mGluR2 KO and WT mouse brain and of normal female Wistar rat brain (20 μm). The sections were preincubated in 50 mM Tris-HCl (MgCl2 2 mM, CaCl2 2 mM; pH 7.0) for 10 min (two times) at room temperature and dried. […]
Readout Label: difference in tracer binding to WT and mGluR2 KO mouse brain sections

C[C@H]1CN(c2ccc(C(F)(F)F)cc2)C(=O)c2c(-c3ccnc(N[11CH3])c3)cnn21 [[^11C]-2]: significant difference
COc1nc(N2C[C@H](C)n3ncc(-c4ccnc(N[11CH3])c4)c3C2=O)ccc1C(F)(F)F [[^11C]-5]: less pronounced
C[C@H]1CN(c2ccc(S(F)(F)(F)(F)F)cc2)C(=O)c2c(-c3ccnc(N[11CH3])c3)cnn21 [[^11C]-4]: less pronounced
C[C@H]1CN(c2ccc(C(F)(F)F)cc2)C(=O)c2c(-c3ccnc([11CH3])c3)cnn21 [[^11C]-1]: significant difference

====

Striatum WT (TB)/Striatum KO (TB): recorded values
- Target Desc: mGluR2 (Mus musculus)
- Construct: horizontal sections of mGluR2 KO and WT mouse brain and of normal female Wistar rat brain; from tissue; host or cells: mouse brain sections (WT and mGluR2 KO), 20 µm
- Experiment: In vitro autoradiography binding on mGluR2 KO and WT mouse brain sections
- Run Parameters: total binding ratio, WT versus mGluR2 KO mouse brain sections, striatum

C[C@H]1CN(c2ccc(C(F)(F)F)cc2)C(=O)c2c(-c3ccnc([11CH3])c3)cnn21 [[^11C]-1]: ~3.8
C[C@H]1CN(c2ccc(C(F)(F)F)cc2)C(=O)c2c(-c3ccnc(N[11CH3])c3)cnn21 [[^11C]-2]: ~4.8
C[C@H]1CN(c2ccc(S(F)(F)(F)(F)F)cc2)C(=O)c2c(-c3ccnc(N[11CH3])c3)cnn21 [[^11C]-4]: ~2.2

Consider now this further compound.
Asked: Consider the compound COc1nc(N2C[C@H](C)n3ncc(-c4ccnc(N[11CH3])c4)c3C2=O)ccc1C(F)(F)F [[^11C]-5] . State its measured Striatum WT (TB)/Striatum KO (TB).
Given back: ~1.9

====

Striatum WT (TB)/striatum WT (block Co. No. 1): recorded values
- Target Desc: mGluR2 (Mus musculus, UniProt Q14BI2)
- Construct: horizontal sections of mGluR2 KO and WT mouse brain and of normal female Wistar rat brain; from tissue; host or cells: mouse brain sections (WT and mGluR2 KO), 20 µm
- Experiment: In vitro autoradiography binding on mGluR2 KO and WT mouse brain sections
- Run Parameters: WT mouse striatum, block with 10 μM Co. No. 1

Completed entries (count: 3):
COc1nc(N2C[C@H](C)n3ncc(-c4ccnc(N[11CH3])c4)c3C2=O)ccc1C(F)(F)F [[^11C]-5]: ~1.9
C[C@H]1CN(c2ccc(C(F)(F)F)cc2)C(=O)c2c(-c3ccnc([11CH3])c3)cnn21 [[^11C]-1]: ~11.8
C[C@H]1CN(c2ccc(C(F)(F)F)cc2)C(=O)c2c(-c3ccnc(N[11CH3])c3)cnn21 [[^11C]-2]: ~8.3

Asked: Consider the molecule C[C@H]1CN(c2ccc(S(F)(F)(F)(F)F)cc2)C(=O)c2c(-c3ccnc(N[11CH3])c3)cnn21 [[^11C]-4] . State its measured Striatum WT (TB)/striatum WT (block Co. No. 1).
Given back: ~2.6
